Cited source for all entries: patent US6235751A

- Tested on: Staphylococcus aureus 503
- TEST: Antibacterial activity in vitro (MIC, two-fold agar dilution)
- CONDITIONS: Staphylococcus aureus, 503, 18 h, read-out: Minimal Inhibitory Concentration (MIC)
QUANTITY: MIC (mg/L)
Provide only the numeric value, understood in mg/L.

Just so you know, measured MIC for O=C(O)c1cn(C2CC2)c2cc(N3CCNCC3)c(F)cc2c1=O [Ciprofloxacin, reference compound] came out at 0.391

Just so you know, measured MIC for Cc1c(N2CC(CN)C(OCc3cccnc3)C2)c(F)cn2c(=O)c(C(=O)O)cc(C3CC3)c12 (stereo not shown) [Example 16] came out at 0.013

Just so you know, measured MIC for Cc1c(N2CC3=CCCN[C@H]3C2)c(F)cn2c(=O)c(C(=O)O)cc(C3CC3)c12 [Example 1] came out at 0.007

Just so you know, measured MIC for CC1CN(c2c(F)c(N)c3c(=O)c(C(=O)O)cn(C4CC4)c3c2F)CC(C)N1 (stereo not shown) [Sparfloxacin, reference compound] came out at 0.049
